Source of measurements: ChEMBL document CHEMBL1142047

Test Summary: Time taken for half of the concentration to degrade upon oral administration (n=7; 0.5 mg/kg po)
Assay type: ADME, organism-based, Canis lupus familiaris
Parameters: dose 0.5 mg/kg, route oral
Condition: dog, in vivo
Reported Endpoint: half-life
Kindly report the value followed by its unit.

[ask] What does the data say about its half-life? Entry: CS(=O)(=O)N1CCN(S(=O)(=O)CCCN2CCC(CNC(=O)c3cccc4c3OCCO4)CC2)CC1
[reply] 3.6 h

====

Test Summary: Plasma clearance in dog (n=8; dose 0.25 mg/kg iv or 0.5 mg/kg po)
Type: ADME, organism-based, Canis lupus familiaris
Reported Endpoint: clearance (mL/min/kg)
Lab book: enter the figure in mL/min/kg, no units written.

Known results for molecules:
Smiles Text	clearance, mL/min/kg
O=C(NCC1CCN(CCCS(=O)(=O)N2CCN(C3CCCC3)CC2)CC1)c1cccc2c1OCCO2	37
O=C(NCC1CCN(CCCS(=O)(=O)N2CCNCC2)CC1)c1cccc2c1OCCO2	11

[ask] What does the data say about its clearance? Entry: O=C(NCC1CCN(CCCS(=O)(=O)N2CCN(C(=O)c3ccco3)CC2)CC1)c1cccc2c1OCCO2
[reply] 2

====

Test Summary: Time taken for half of the concentration to degrade upon intravenous administration (n=12; dose 0.25 mg/kg iv)
Condition: dog, in vivo
Recorded measurements of half-life, one per entry
Kindly report the value followed by its unit.

Smiles Text	half-life
CCCCN1CCC(CNC(=O)c2c3n(c4ccccc24)CCCO3)CC1	426 min

Proceeding to the next compound to report its half-life.
[ask] What does the data say about its half-life? Entry: O=C(NCC1CCN(CCCS(=O)(=O)N2CCOCC2)CC1)c1cccc2c1OCCO2
[reply] 60 min

====

Test Summary: Time taken for half of the concentration to degrade upon intravenous administration (n=7; dose 0.25 mg/kg iv)
Condition: dog, in vivo
Reported Endpoint: half-life (min)
Lab book: enter the figure in min, no units written.

Known results for compounds:
Smiles Text	Unit Info	half-life
CC1(C)CCN(S(=O)(=O)CCCN2CCC(CNC(=O)c3cccc4c3OCCO4)CC2)CC1	min	42
CC(C)N1CCN(S(=O)(=O)CCCN2CCC(CNC(=O)c3cccc4c3OCCO4)CC2)CC1	min	180
CC(=O)N1CCN(S(=O)(=O)CCCN2CCC(CNC(=O)c3cccc4c3OCCO4)CC2)CC1	min	78
CCCC1CCN(S(=O)(=O)CCCN2CCC(CNC(=O)c3cccc4c3OCCO4)CC2)CC1	min	30
O=C(NCC1CCN(CCCS(=O)(=O)N2CCN(c3ncccn3)CC2)CC1)c1cccc2c1OCCO2	min	42
CCN1CCN(S(=O)(=O)CCCN2CCC(CNC(=O)c3cccc4c3OCCO4)CC2)CC1	min	186
CCCS(=O)(=O)N1CCN(S(=O)(=O)CCCN2CCC(CNC(=O)c3cccc4c3OCCO4)CC2)CC1	min	42

Proceeding to the next compound to report its half-life.
[ask] What does the data say about its half-life? Entry: CS(=O)(=O)N1CCN(S(=O)(=O)CCCN2CCC(CNC(=O)c3cccc4c3OCCO4)CC2)CC1
[reply] 72
